Compiled Ki measurements on Prothrombin (Homo sapiens, UniProt P00734) taken from the literature.

Q) Reported Ki, compound CCOc1cc([C@H](Nc2ccc3c(N)nccc3c2)C(=O)NS(=O)(=O)c2ccccc2)ccc1OC(C)C : ____
A) > 13 µM

Q) Reported Ki, compound CCCC(NC(=O)[C@@H]1C2CCCC2CN1C(=O)[C@@H](NC(=O)[C@@H](NC(=O)c1cnccn1)C1CCCCC1)C(C)(C)C)C(=O)C(=O)N[C@H](C)CC (stereo partly specified) : ____
A) > 50 µM

Q) Reported Ki, compound N=C(N)Nc1ccc(CNC(=O)N2CCN(C(=O)O[C@H]3CCC[C@@H](OC(=O)N4CCN(C(=O)NCCCC5CCNCC5)CC4)CCC3)CC2)cc1 : ____
A) > 1000 µM

Q) Reported Ki, compound CCOC(=O)C1CCN(c2ccc(N3C[C@H](CNC(=O)c4cnc(N)s4)OC3=O)cc2)C(=O)C1.O=C(O)C(F)(F)F (stereo partly specified) : ____
A) > 100 µM

Q) Reported Ki, compound Nc1cc(C2=NOC(Cn3cccn3)(C(=O)Nc3ccc(-c4ccccc4S(N)(=O)=O)cn3)C2)ccc1Cl (single isomer, unassigned; (+)) : ____
A) > 21 µM

Q) Reported Ki, compound CC(C)(C)OC(=O)N[C@H](Cc1ccccc1)C(=O)N1CCC[C@H]1C(=O)NCC#Cc1ccc(N)nc1 : ____
A) > 20 µM

Q) Reported Ki, compound CCCCc1nc2cc(OC3CCN(C(C)=N)CC3)ccc2n1Cc1ccc2ccc(C(=N)N)cc2c1 : ____
A) 2 µM

Q) Reported Ki, compound N=C(N)c1cccc(C[C@H](NS(=O)(=O)c2cccc(NC(=O)CCN)c2)C(=O)N2CCCC[C@@H]2C(=O)O)c1 : ____
A) 2.3 µM

Q) Reported Ki, compound Cc1c(F)c(Oc2cccc(C(=N)N)c2)nc(Oc2cccc(C(N)=O)c2)c1F : ____
A) > 5 µM

Q) Reported Ki, compound CC(=N)N1CCC(Oc2ccc3c(nc(C)n3Cc3ccc4ccc(C(=N)N)cc4c3)c2[N+](=O)[O-])CC1 : ____
A) > 5 µM

Q) Reported Ki, compound Cc1ccc(NC(=O)c2sc3ccccc3c2Cl)c(C(=O)Nc2ccc(C(F)(F)F)cc2)c1 : ____
A) > 5 µM

###

Compiled Ki measurements on Prothrombin (Homo sapiens) taken from the literature.
Write down the numeric answer in µM and omit the unit.

Q) Reported Ki, molecule CN(C)C[C@H](Cc1ccccc1)Nc1ccncc1S(=O)(=O)N[C@@H](Cc1ccc(N)cc1)C(=O)N1CCC(CCF)CC1 : ____
A) 0.024

Q) Reported Ki, molecule Nc1cc(C2=NOC(CNS(N)(=O)=O)(C(=O)Nc3ccc(-c4ccccc4S(N)(=O)=O)cn3)C2)ccc1Cl (racemic) : ____
A) 5.9

Q) Reported Ki, molecule CN(C(=O)[C@H](Cc1ccc(CN)cc1)NS(=O)(=O)c1ccc(-c2ccccc2)cc1)C1CCCC1 : ____
A) 0.0605

###

Compiled pKi measurements on UniProt P00734 taken from the literature.
Expect pKi as a plain number equal to -log10 of the molar concentration.

Q) pKi of N=C(N)c1cccc(C[C@H](NS(=O)(=O)c2ccc(C3CCCCC3)cc2)C(=O)N2CCN(C(=N)N)CC2)c1 on UniProt P00734?
A) 5.77

Q) pKi of COC(=N)NS(=O)(=O)c1ccc(Cl)cc1 on UniProt P00734?
A) 6.58

Q) pKi of Cc1cc(OCC/C=N/N=C(N)N)cc(OS(=O)(=O)c2cccnc2)c1 on UniProt P00734?
A) 7.44

Q) pKi of N=C(N)c1cccc(Oc2ccc(NC(=O)c3ccccc3)c(Oc3cccc(C(=N)N)c3)n2)c1 on UniProt P00734?
A) 5.47

Q) pKi of Cc1nc(N)ccc1CNC(=O)Cn1c(C)c(Cl)nc(NCCc2ccccc2)c1=O on UniProt P00734?
A) 8.15

Q) pKi of CCCNc1cnc2n(c1=O)[C@H](C(=O)NCc1ccc(C(=N)N)cc1)CC2(CC)CC on UniProt P00734?
A) 5.28

Q) pKi of N=C(N)c1ccc(CNC(=O)[C@@H]2Cc3cccc(c3)NC(=O)CCN3CCN(CCC(=O)Nc4ccc(cc4)C[C@@H](NS(=O)(=O)Cc4ccccc4)C(=O)N2)CC3)cc1 on UniProt P00734?
A) 5.49

Q) pKi of N=C(NN)c1ccc(CNC(=O)[C@@H]2CCCN2C(=O)[C@H](NCC(=O)O)C(c2ccccc2)c2ccccc2)s1 on UniProt P00734?
A) 7.51

Q) pKi of FC(F)(CNc1cccc2oc(Cc3ccccc3-n3cncn3)nc12)c1ccccn1 on UniProt P00734?
A) 8.00

Q) pKi of COc1cc([C@@H](Nc2ccc(C(=N)N)cc2)C(=O)N[C@H](C(=O)O)c2ccccc2)c(C(=O)Cc2ccccc2)cc1OCc1ccccc1 on UniProt P00734?
A) 5.19

Q) pKi of N=C(N)c1ccc(Oc2cccc(Oc3cccc(C(=N)N)c3)n2)cc1 on UniProt P00734?
A) 5.92

Q) pKi of CC1(C)[C@@H]2C[C@H]3OB([C@H](CCCCN)NC(=O)[C@@H]4CCCN4C(=O)c4cccc(Cc5cccc(C(F)(F)F)c5)c4)O[C@@]3(C)[C@H]1C2 on UniProt P00734?
A) 9.80

Q) pKi of N=C(N)c1ccc2c(ccn2CC(=O)N2CCC(Cc3ccccc3F)CC2)c1 on UniProt P00734?
A) 7.62

Q) pKi of Cc1nc(-c2cccc(C(=N)N)c2)c(C(=O)Nc2ccc(-c3ccccc3S(N)(=O)=O)cc2)o1.O=C(O)C(F)(F)F on UniProt P00734?
A) 5.44

Q) pKi of N=C(N)NCCCC(NC(=O)[C@@H]1CC[C@H]2CN(C(=O)CCc3ccccc3C(F)(F)F)CC(=O)N21)C(=O)c1nccs1 (some centres undefined) on UniProt P00734?
A) 9.30

Q) pKi of CCOC(=O)CCC(=O)N(Cc1ccccc1)c1ccc2c(c1)OC(Cc1ccc(C(=N)N)cc1)C(=O)N2C (centres undefined) on UniProt P00734?
A) 8.24

Q) pKi of O=C([C@H](Cc1ccc(O)cc1)NS(=O)(=O)c1cnccc1N[C@H](COCCO)Cc1ccccc1)N1CCC(CCCl)CC1 on UniProt P00734?
A) 7.55
